- system: human GPR119 (Homo sapiens, UniProt Q8TDV5)
- Construct: host or cells: HEK293-CRE-beta-lactamase
- Sequence (Q8TDV5 whole entry): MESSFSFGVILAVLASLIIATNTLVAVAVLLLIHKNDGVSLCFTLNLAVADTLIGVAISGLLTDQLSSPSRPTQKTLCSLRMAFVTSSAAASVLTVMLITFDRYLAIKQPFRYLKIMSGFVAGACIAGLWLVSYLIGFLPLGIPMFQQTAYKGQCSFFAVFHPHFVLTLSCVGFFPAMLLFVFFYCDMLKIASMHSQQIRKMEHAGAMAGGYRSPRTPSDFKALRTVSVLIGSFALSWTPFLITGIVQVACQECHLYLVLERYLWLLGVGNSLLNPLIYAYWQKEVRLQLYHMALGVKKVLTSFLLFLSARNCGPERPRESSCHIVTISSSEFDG
- protocol: cAMP HTRF functional assay (hGPR119 HEK-CRE beta-lactamase cells)
- Type: cell-based
- conditionLabel: percent of maximal activity relative to standard GPR119 agonist (WO2005121121) at 10 μM; one value per run
Note to self: use Criterion met only for Intrinsic Activity* (cAMP) readings below 80%; a reading exactly at 80% still gets Criterion not met.

Req: I'd appreciate it if you could check whether CC1(OC(=O)N2CCC(n3ncc(COc4cc(F)ccc4F)c3C#N)CC2)CC1 [Example 13] has Intrinsic Activity* (cAMP) smaller than 80%.
Resp: Criterion not met

Req: I'd appreciate it if you could check whether Cc1nc(-n2cncn2)ccc1OCc1cnn(C2CCN(C(=O)OC(C)C)CC2)c1C#N [Example 35] has Intrinsic Activity* (cAMP) smaller than 80%.
Resp: Criterion met

Req: I'd appreciate it if you could check whether CC(C)OC(=O)N1CCC(n2ncc(COc3ccc(S(C)(=O)=O)cc3F)c2C#N)CC1 [Example 2] has Intrinsic Activity* (cAMP) smaller than 80%.
Resp: Criterion met

Req: I'd appreciate it if you could check whether CC(C)OC(=O)N1CCC(n2ncc(COc3ccc(-n4cccn4)cc3)c2C#N)CC1 [Example 18] has Intrinsic Activity* (cAMP) smaller than 80%.
Resp: Criterion met

Req: I'd appreciate it if you could check whether CC(C)OC(=O)N1CCC(n2ncc(COc3ccc(-c4nccn4C)cc3F)c2C#N)CC1 [Example 33] has Intrinsic Activity* (cAMP) smaller than 80%.
Resp: Criterion not met

Req: I'd appreciate it if you could check whether CC(C)OC(=O)N1CCC(n2ncc(COc3ccc(S(=O)(=O)CCO)cc3F)c2C#N)CC1 [Example 1] has Intrinsic Activity* (cAMP) smaller than 80%.
Resp: Criterion met

Req: I'd appreciate it if you could check whether CC1(OC(=O)N2CCC(n3ncc(COc4ccc(C#N)cc4)c3C#N)CC2)CC1 [Example 17] has Intrinsic Activity* (cAMP) smaller than 80%.
Resp: Criterion not met

----------
- system: human GPR119 (Homo sapiens, UniProt Q8TDV5)
- Construct: host or cells: HEK293-CRE-beta-lactamase
- protocol: GPR119 radioligand binding assay ([3H]-Compound A or [3H]-Compound B, HEK 293FT membranes)
- conditionLabel: Ki from IC50 by Cheng-Prusoff; one value per run; read-out: Human Binding Ki
measuredAttribute: Ki (nM)
Numbers only here, please. The scale is nM.

Check out these entries, answers already filled in.
> print(dat)
                                smilesinput                                    system  reportedvalue
1  CC1(OC(=O)N2CCC(n3ncc(COc4c(F)ccc(F)c4F)c3C#N)CC2)CC1  human GPR119 (Homo sapiens, UniProt Q8TDV5)            462
2  CC(C)OC(=O)N1CCC(n2ncc(COc3ccc(F)cc3F)c2C#N)CC1  human GPR119 (Homo sapiens, UniProt Q8TDV5)            530
3  Cc1ccccc1OCc1cnn(C2CCN(C(=O)OC(C)C)CC2)c1C#N  human GPR119 (Homo sapiens, UniProt Q8TDV5)           1700

Shifting focus to the molecule that follows.
Req: Ki of CC(C)OC(=O)N1CCC(n2ncc(COc3ccc(-c4nnnn4CCO)cc3F)c2C#N)CC1 on human GPR119 (Homo sapiens, UniProt Q8TDV5)?
Resp: 150

----------
- system: human GPR119 (Homo sapiens)
- Construct: host or cells: HEK293-CRE-beta-lactamase
- protocol: beta-lactamase reporter functional assay (hGPR119 HEK293-CRE beta-lactamase cells)
- Format: cell-based
- conditionLabel: percent of maximal activity relative to standard GPR119 agonist (WO2005121121) at 10 microM; one value per run; read-out: Intrinsic Activity* (B-lactamase)
measuredAttribute: Emax (%)
Numbers only here, please. The scale is %.

Check out these entries, answers already filled in.
> print(dat)
                                smilesinput  reportedvalue
1  CC(C)OC(=O)N1CCC(n2ncc(CNc3ccc(S(C)(=O)=O)cc3F)c2C#N)CC1            100
2  CC(C)OC(=O)N1CCC(n2ncc(COc3ccc(-c4nnnn4C)cc3F)c2C#N)CC1            107

Shifting focus to the compound that follows.
Req: Reported Emax for CC(C)OC(=O)N1CCC(n2ncc(COc3ccc(S(=O)(=O)CCO)cc3F)c2C#N)CC1 : what is it?
Resp: 100

----------
- system: human GPR119 (Homo sapiens, UniProt Q8TDV5)
- Construct: host or cells: HEK293-CRE-beta-lactamase
- protocol: cAMP HTRF functional assay (hGPR119 HEK-CRE beta-lactamase cells)
- Assay type: cell-based
- conditionLabel: hGPR119 HEK-CRE beta-lactamase cells, HTRF cAMP; one value per run
Some molecules, each annotated with its measured EC50.

Req: EC50 of Cc1ncccc1OC(C)c1cnn(C2CCN(C(=O)OC(C)C)CC2)c1C#N (stereo not drawn) [Example 28] on human GPR119 (Homo sapiens, UniProt Q8TDV5)?
Resp: > 10 µM

Req: EC50 of Cc1ncccc1NCc1cnn(C2CCN(C(=O)OC(C)C)CC2)c1C#N [Example 6] on human GPR119 (Homo sapiens, UniProt Q8TDV5)?
Resp: > 10 µM

Req: EC50 of Cc1ccccc1OCc1cnn(C2CCN(C(=O)OC(C)C)CC2)c1C#N [Example 12] on human GPR119 (Homo sapiens, UniProt Q8TDV5)?
Resp: > 10 µM

----------
- system: human GPR119 (Homo sapiens)
- Construct: host or cells: HEK293-CRE-beta-lactamase
- protocol: beta-lactamase reporter functional assay (hGPR119 HEK293-CRE beta-lactamase cells)
- Format: cell-based
- conditionLabel: hGPR119 HEK293-CRE beta-lactamase cells; one value per run; read-out: Human B-lactamase Functional EC50
measuredAttribute: EC50 (nM)
Numbers only here, please. The scale is nM.

> print(dat)
                                   compound  reportedvalue
1  COP(=O)(OC)c1ccc(OCc2cnn(C3CCN(C(=O)OC(C)C)CC3)c2C#N)c(F)c1 [Example 7]            622
2  CC(C)OC(=O)N1CCC(n2ncc(COc3ccc(-c4cncn4C)cc3F)c2C#N)CC1 [Example 34]            270

Shifting focus to the compound that follows.
Req: EC50 of CC(C)OC(=O)N1CCC(n2ncc(COc3ccc(F)cc3F)c2C#N)CC1 [Example 11] on human GPR119 (Homo sapiens)?
Resp: 782

----------
Some compounds, each annotated with its measured Emax.
- system: human GPR119 (Homo sapiens, UniProt Q8TDV5)
- Construct: host or cells: HEK293-CRE-beta-lactamase
- protocol: cAMP HTRF functional assay (hGPR119 HEK-CRE beta-lactamase cells)
- Type: cell-based
- conditionLabel: percent of maximal activity relative to standard GPR119 agonist (WO2005121121) at 10 μM; one value per run; read-out: Intrinsic Activity* (cAMP)
Numbers only here, please. The scale is %.

> print(dat)
                                   compound  reportedvalue
1  CC(C)OC(=O)N1CCC(n2ncc(COc3ccc(-n4cnnn4)cc3F)c2C#N)CC1             86

Shifting focus to the compound that follows.
Req: Reported Emax for Cc1ncccc1OCc1cnn(C2CCN(C(=O)OC(C)C)CC2)c1C#N : what is it?
Resp: 39

----------
- system: human GPR119 (Homo sapiens)
- Construct: host or cells: HEK293-CRE-beta-lactamase
- protocol: cAMP HTRF functional assay (hGPR119 HEK-CRE beta-lactamase cells)
- Format: cell-based
- conditionLabel: percent of maximal activity relative to standard GPR119 agonist (WO2005121121) at 10 μM; one value per run; read-out: Intrinsic Activity* (cAMP)
Classify as follows. Reported Emax greater than or equal to 60%: TRUE. Reported Emax below: FALSE.

Example results:
> print(dat)
                                   molecule  classlabel
1  CC(C)OC(=O)N1CCC(n2ncc(COc3ccc(-c4nnn(CCO)n4)cc3F)c2C#N)CC1       FALSE
2  CC(C)OC(=O)N1CCC(n2ncc(CNc3ccc(S(C)(=O)=O)cc3F)c2C#N)CC1        TRUE
3  CC(C)OC(=O)N1CCC(n2ncc(COc3ccc(-n4cnnn4)cc3)c2C#N)CC1        TRUE

Req: For this molecule, is measured Emax 60% or higher? CC(C)OC(=O)N1CCC(n2ncc(COc3ccc(-c4nccn4C)cc3F)c2C#N)CC1
Resp: TRUE

Req: For this molecule, is measured Emax 60% or higher? CC(C)OC(=O)N1CCC(n2ncc(COc3ccc(C#N)cc3F)c2C#N)CC1
Resp: TRUE

Req: For this molecule, is measured Emax 60% or higher? CC(C)OC(=O)N1CCC(n2ncc(CC(C)c3ccc(S(C)(=O)=O)cc3F)c2C#N)CC1 (centres unmarked)
Resp: FALSE

Req: For this molecule, is measured Emax 60% or higher? CC(C)OC(=O)N1CCC(n2ncc(COc3ccc(-c4nnnn4C)cc3F)c2C#N)CC1
Resp: TRUE
